Test system: SNB-19 CNS
Experiment: NCI-60 one-dose screen, 48 h (100 = growth as untreated, 0 = no growth, -100 = all killed)
Details: 10 µM unless noted
The panel holds about 83,000 compounds, 20% with a hit somewhere; the sample as a whole holds those more often.
Param threshold (90%) applies to growth; output true when value >= threshold, false when value < threshold.

# check: growth of COc1cccc2c1C(=O)c1c(O)c3c(c(O)c1C2=O)C[C@](O)(C(=O)CO)C[C@H]3O[C@@H]1C[C@@H](NC(=O)CCCCCN(C)C2(c3ccc(F)cc3)CC3CCC2C3)[C@H](O)[C@@H](C)O1 (some centres undefined) is greater than or equal to 90%
false

Can `O=C1CC(=NCC(=O)n2c(-c3ccccc3)nc3ccccc32)NN1` be said to have growth at or above 90%?
true

Textbook exercise: given the entry `Cc1[nH]c(-c2ccc3cc[nH]c3c2)c2c1C(=O)CCCC2` , state whether its growth is greater than or equal to 90%.
false

I'd appreciate it if you could say whether `CN(C)S(=O)(=O)c1cccc(-c2nc3sc4c(c3c(=O)[nH]2)CCCC4)c1` has growth at least equal to 90%.
false

Check this compound for growth at or above 90%: `COc1ccc(Nc2cc(C)nc(N3CCN(c4ccnc5cc(Cl)ccc45)CC3)n2)cc1`
false

Answer whether growth of `O=C1c2ccccc2OC=C(c2ccccc2)N1CCCCNc1ccc(S(=O)(=O)Nc2ncccn2)cc1` is greater than or equal to 90%.
true

Does `NC(=NCCCC1(c2ccccc2)CCCC1)Nc1ccc(Cl)cc1` have a reported growth of at least 90%?
false

Has `O=C1c2cc3c(cc2-c2c1c1ccc(F)cc1c(=O)n2C[C@H](O)[C@@H](O)[C@H](O)CO)OCO3` a recorded growth greater than or equal to 90%?
false

Would you say `CC1=CC(=NN=c2cc(C)n([O-])c(C)c2)C=C(C)[N+]1=O` shows growth at minimum 90%?
true

Check the entry `CCNC(=O)Oc1ccc(/C(=C(\C)c2ccc(Cl)cc2)c2ccc(OCCN(CC)CC)cc2)cc1` : does growth equal or exceed 90%?
false

Given `O=C1NC(=S)N[C@H]1CC(=O)n1cnc2ccccc21` , state whether its growth is at least 90%.
true

Given the entry `COC(=O)[C@]12CCC(C)(C)C[C@H]1[C@H]1C(=O)C[C@@H]3[C@@]4(C)c5c([nH]c6ccccc6c5=O)C(C)(C)[C@@H]4CC[C@@]3(C)[C@]1(C)CC2` , answer whether its growth meets or surpasses 90%.
false

Does Nc1n[nH]c2ccc([C@@H]3Nc4ccc5[nH]ncc5c4[C@H]4C5C=CC(C5)[C@@H]34)cc12 (some centres undefined) have a reported growth of at least 90%?
false
